Where these numbers come from: patent US11739100B2

- target_entity: recombinant Vps34 (Homo sapiens)
- Sequence (Q8NEB9 whole entry): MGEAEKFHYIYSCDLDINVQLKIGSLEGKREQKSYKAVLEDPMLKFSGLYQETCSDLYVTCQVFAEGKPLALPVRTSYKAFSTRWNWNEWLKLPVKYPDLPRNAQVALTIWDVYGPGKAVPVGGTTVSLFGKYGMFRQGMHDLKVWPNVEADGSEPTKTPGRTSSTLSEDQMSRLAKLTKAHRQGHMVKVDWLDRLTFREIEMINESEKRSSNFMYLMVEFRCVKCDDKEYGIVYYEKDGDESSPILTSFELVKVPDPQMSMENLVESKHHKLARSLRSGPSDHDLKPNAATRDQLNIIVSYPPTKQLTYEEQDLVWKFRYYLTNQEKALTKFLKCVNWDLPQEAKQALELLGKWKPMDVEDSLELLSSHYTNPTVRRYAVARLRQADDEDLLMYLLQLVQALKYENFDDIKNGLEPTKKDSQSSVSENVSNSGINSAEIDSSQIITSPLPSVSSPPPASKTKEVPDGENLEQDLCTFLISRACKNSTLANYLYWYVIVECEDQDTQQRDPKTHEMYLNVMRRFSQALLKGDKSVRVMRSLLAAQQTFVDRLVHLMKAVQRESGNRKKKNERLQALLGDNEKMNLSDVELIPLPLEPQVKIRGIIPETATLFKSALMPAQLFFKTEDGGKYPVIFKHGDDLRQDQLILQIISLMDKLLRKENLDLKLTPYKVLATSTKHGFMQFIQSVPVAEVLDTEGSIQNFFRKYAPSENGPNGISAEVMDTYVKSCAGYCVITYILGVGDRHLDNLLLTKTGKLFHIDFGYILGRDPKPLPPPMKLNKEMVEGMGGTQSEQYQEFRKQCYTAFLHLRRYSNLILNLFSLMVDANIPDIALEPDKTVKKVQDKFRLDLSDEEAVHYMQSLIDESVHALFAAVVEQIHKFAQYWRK
- assay_explanation: Phosphorylation of phosphatidylinositol (PI) by Vps34 in vitro, ADP detected by TR-FRET (HTRF Transcreener ADP)
- condition_description: 10 μM ATP, 55 μg/ml PI, approximately 3 nM Vps34, 1 hour at ambient temperature; absolute IC50, mean of two independent experiments; read-out: IC50 activity range
parameter: IC50

Request body: readout IC50, system recombinant Vps34 (Homo sapiens), query `C[C@@H]1COCCN1c1cc(=O)n2c(n1)N(Cc1cncc(F)c1)[C@H](C(F)(F)F)CC2` . Return the value.
< 10 nM

* * *

- target_entity: recombinant Vps34 (Homo sapiens)
- assay_explanation: Phosphorylation of phosphatidylinositol (PI) by Vps34 in vitro, ADP detected by TR-FRET (HTRF Transcreener ADP)
- condition_description: 10 μM ATP, 55 μg/ml PI, approximately 3 nM Vps34, 1 hour at ambient temperature; absolute IC50, mean of two independent experiments; read-out: IC50 activity range
pIC50: −log10 of the molar value.
parameter: pIC50

1. C[C@@H]1COCCN1c1nc2n(c(=O)c1F)CC[C@@H](C(F)(F)F)N2CC(=O)c1nccs1 [Example 68]: > 8.00
2. C[C@@H]1COC[C@@H](C)N1c1cc(=O)n2c(n1)N(Cc1ccnc(Cl)c1)[C@H](C(F)(F)F)CC2 [Example 157]: > 8.00
3. C[C@@H]1COCCN1c1nc2n(c(=O)c1F)CC[C@@H](C(F)(F)F)N2Cc1noc(C2CC2)n1 [Example 247]: > 8.00
4. C[C@@H]1COCCN1c1cc(=O)n2c(n1)N(CC(F)C1CC1)[C@H](C(F)(F)F)CC2 (single isomer, unassigned) [Example 325]: > 8.00

Name the reported pIC50 value associated with the compound C[C@@H]1COCCN1c1cc(=O)n2c(n1)N(CC(=O)N(C)C)[C@H](C(F)(F)F)CC2 [Example 222]
7.00 to 8.00

Param item: C[C@@H]1COCCN1c1cc(=O)n2c(n1)N(CC(=O)c1cccc(F)n1)[C@H](C(F)(F)F)CC2 [Example 63]
> 8.00

Param item: Cc1nc(CN2c3nc(N4CCOC[C@H]4C)cc(=O)n3C[C@@]2(C)C(F)(F)F)no1 [Example 240]
> 8.00

Param item: Cc1nc(CN2c3nc(N4CCOC[C@H]4C)c(F)c(=O)n3CC[C@H]2C(F)(F)F)no1 [Example 15]
> 8.00

Param item: C[C@@H]1COCCN1c1cc(=O)n2c(n1)N(CC1CCCCO1)[C@H](C(F)(F)F)CC2 (single isomer, unassigned) [Example 138]
> 8.00

Param item: C[C@@H]1COCCN1c1cc(=O)n2c(n1)N(Cc1ccncc1Cl)[C@H](C(F)(F)F)CC2 [Example 66]
> 8.00

Param item: C[C@@H]1COCCN1c1cc(=O)n2c(n1)N(CC(=O)N1CCCCO1)[C@H](C(F)(F)F)CC2 [Example 318]
> 8.00

Param item: CO/N=C(/CN1c2nc(N3CCOC[C@H]3C)cc(=O)n2CC[C@H]1C(F)(F)F)C1CC1 (single isomer, unassigned) [Example 306]
> 8.00

Param item: C[C@@H]1COCCN1c1cc(=O)n2c(n1)N(C/C(=N\O)C1CC1)[C@H](C(F)(F)F)CC2 (single isomer, unassigned) [Example 304]
> 8.00

Param item: C[C@@H]1COCCN1c1cc(=O)n2c(n1)N(Cc1ccnn1C(F)F)[C@H](C(F)(F)F)CC2 [Example 37]
> 8.00
